Origin of the recorded values: ChEMBL document CHEMBL5291721

biological target: 5-hydroxytryptamine receptor 2B (Homo sapiens, UniProt P41595); type: functional, cell-based; also: assay procedure not described here
Sequence (P41595 whole entry): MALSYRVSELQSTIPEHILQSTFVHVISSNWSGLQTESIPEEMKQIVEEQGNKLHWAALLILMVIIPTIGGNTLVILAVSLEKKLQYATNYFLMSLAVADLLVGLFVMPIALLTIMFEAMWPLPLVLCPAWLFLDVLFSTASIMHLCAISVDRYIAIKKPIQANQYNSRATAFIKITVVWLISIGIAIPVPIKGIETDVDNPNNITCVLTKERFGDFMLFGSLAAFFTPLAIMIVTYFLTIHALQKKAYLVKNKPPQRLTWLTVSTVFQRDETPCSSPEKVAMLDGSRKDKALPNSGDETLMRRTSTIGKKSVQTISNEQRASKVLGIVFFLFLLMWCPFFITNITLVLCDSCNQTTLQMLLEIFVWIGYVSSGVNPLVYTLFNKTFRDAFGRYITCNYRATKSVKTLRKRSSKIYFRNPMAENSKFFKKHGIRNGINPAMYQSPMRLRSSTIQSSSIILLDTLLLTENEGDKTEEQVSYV

| molecule | target.of.assay | AC50 |
| --- | --- | --- |
| CCN(CC)CCOC(=O)c1ccc(N)cc1 | 5-hydroxytryptamine receptor 2B (Homo sapiens, UniProt P41595) | > 10 µM |
| NC(N)=Nc1nc(CSCCC(N)=NS(N)(=O)=O)cs1 | 5-hydroxytryptamine receptor 2B (Homo sapiens, UniProt P41595) | > 10 µM |
| Cc1cccc(C)c1OCC(C)N (stereo unspecified) | 5-hydroxytryptamine receptor 2B (Homo sapiens, UniProt P41595) | 8.5 µM |
| CCCCCCCCCCCC[N+](C)(C)CCOc1ccccc1 | 5-hydroxytryptamine receptor 2B (Homo sapiens, UniProt P41595) | 11 µM |
| CCCCOc1cc(C(=O)NCCN(CC)CC)c2ccccc2n1 | 5-hydroxytryptamine receptor 2B (Homo sapiens, UniProt P41595) | > 10 µM |
| O=C(O)CCn1c2c(c3ccccc31)C[C@H](NS(=O)(=O)c1ccc(F)cc1)CC2 | 5-hydroxytryptamine receptor 2B (Homo sapiens, UniProt P41595) | > 10 µM |

* * *

Consider the following compounds and their measured AC50 readings.
target: Prostaglandin G/H synthase 1 (Homo sapiens); type: functional; also: assay procedure not described here
Sequence (P23219 whole entry): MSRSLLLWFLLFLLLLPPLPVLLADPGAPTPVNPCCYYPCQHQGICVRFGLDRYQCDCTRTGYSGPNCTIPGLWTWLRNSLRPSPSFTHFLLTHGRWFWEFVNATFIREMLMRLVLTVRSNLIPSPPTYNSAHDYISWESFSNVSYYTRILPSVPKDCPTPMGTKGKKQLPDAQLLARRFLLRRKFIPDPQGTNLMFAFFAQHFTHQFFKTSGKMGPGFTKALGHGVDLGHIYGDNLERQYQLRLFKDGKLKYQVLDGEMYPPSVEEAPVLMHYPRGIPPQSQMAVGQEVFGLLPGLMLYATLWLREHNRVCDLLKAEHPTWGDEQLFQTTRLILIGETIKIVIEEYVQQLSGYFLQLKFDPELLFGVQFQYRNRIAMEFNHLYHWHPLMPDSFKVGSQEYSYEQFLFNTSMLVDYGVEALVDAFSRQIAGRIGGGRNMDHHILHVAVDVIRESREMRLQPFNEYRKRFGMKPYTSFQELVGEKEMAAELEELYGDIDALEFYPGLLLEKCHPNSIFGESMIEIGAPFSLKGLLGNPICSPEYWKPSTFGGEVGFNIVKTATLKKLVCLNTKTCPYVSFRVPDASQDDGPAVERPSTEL
observation.type: AC50

| compound | meas.value |
| --- | --- |
| CC(C)C(=O)Nc1ccc([N+](=O)[O-])c(C(F)(F)F)c1 [FLUTAMIDE] | > 30 µM |
| Cc1cc(O)cc(C)c1Cl | > 3 µM |
| CN(Cc1cc(Br)cc(Br)c1N)C1CCCCC1 | > 30 µM |
| CN1C(=O)N(C)C2C1N(C)C(=O)N2C (centres undefined) | > 30 µM |
| C[C@@H]1C[C@H]2[C@@H]3C[C@H](F)C4=CC(=O)C(Cl)=C[C@]4(C)[C@@]3(F)[C@@H](O)C[C@]2(C)[C@@]1(O)C(=O)CO | > 30 µM |
| O=C(O)c1cccc(-c2noc(-c3ccccc3F)n2)c1 | > 30 µM |
| CCc1ccc(CCOc2ccc(CC3SC(=O)NC3=O)cc2)nc1 (centres undefined) | > 30 µM |
| CN(C)c1ccc(C(=C2C=CC(=[N+](C)C)C=C2)c2ccc(N(C)C)cc2)cc1 | 20.8 µM |
| O=C1[C@H](CC[C@H](O)c2ccc(F)cc2)[C@@H](c2ccc(O)cc2)N1c1ccc(F)cc1 | > 30 µM |
| O=C(c1ccc(F)c(F)c1Nc1ccc(I)cc1F)N1CC(O)([C@@H]2CCCCN2)C1 | > 30 µM |
| CCOC(=O)N[C@@H]1CC[C@@H]2[C@@H](C1)C[C@H]1C(=O)O[C@H](C)[C@H]1[C@H]2/C=C/c1ccc(-c2cccc(F)c2)cn1 | > 30 µM |
| CC1(C)O[C@@H]2C[C@H]3[C@@H]4C[C@H](F)C5=CC(=O)CC[C@]5(C)[C@H]4[C@@H](O)C[C@]3(C)[C@]2(C(=O)CO)O1 [FLURANDRENOLIDE] | > 30 µM |
| Cc1ccc(O)c2ncccc12 | > 30 µM |
| Nc1nc2ccc(OC(F)(F)F)cc2s1 | > 30 µM |
| CC(C(=O)O)c1ccc2c(c1)Cc1cccnc1O2 (centres undefined) | 0.702 µM |
| Cc1c(-c2ccccc2)oc2c(C(=O)OCCN3CCCCC3)cccc2c1=O [FLAVOXATE] | > 30 µM |
| CN1CCC2=C(C1)c1ccccc1Cc1ccccc12 | > 30 µM |
| Oc1ncnc2[nH]ncc12 | > 30 µM |
| CC(O)CO (centres undefined) | > 30 µM |
